Where these numbers come from: paper PMC9049079

# target_under_test: α-Glucosidase from Saccharomyces cerevisiae (Saccharomyces cerevisiae, UniProt P53341)
# Sequence (P53341 whole entry): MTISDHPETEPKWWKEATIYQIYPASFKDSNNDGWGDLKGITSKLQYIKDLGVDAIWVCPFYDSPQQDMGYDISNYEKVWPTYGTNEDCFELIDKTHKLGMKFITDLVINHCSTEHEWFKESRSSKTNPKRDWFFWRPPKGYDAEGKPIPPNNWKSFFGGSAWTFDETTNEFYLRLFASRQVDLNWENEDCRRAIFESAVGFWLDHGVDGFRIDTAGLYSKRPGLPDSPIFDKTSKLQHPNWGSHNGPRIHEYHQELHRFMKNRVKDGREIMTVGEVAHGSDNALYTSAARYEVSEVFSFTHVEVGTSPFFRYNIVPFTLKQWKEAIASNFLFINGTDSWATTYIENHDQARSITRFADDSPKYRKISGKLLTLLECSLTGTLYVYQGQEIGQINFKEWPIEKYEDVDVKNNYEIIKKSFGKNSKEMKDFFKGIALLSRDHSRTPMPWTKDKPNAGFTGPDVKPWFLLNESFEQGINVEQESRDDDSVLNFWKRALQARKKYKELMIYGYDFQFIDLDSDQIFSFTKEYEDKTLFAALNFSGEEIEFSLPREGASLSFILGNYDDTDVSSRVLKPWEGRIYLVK
# assay_info: Fluorescence quenching of α-glucosidase
# Type: binding
# settings: K a (binding constant), T 304 K

| smi | target_under_test | readout_unit | Kd |
| --- | --- | --- | --- |
| Oc1cc(O)cc(/C=C/c2ccc(O)c(O)c2)c1 | α-Glucosidase from Saccharomyces cerevisiae (Saccharomyces cerevisiae, UniProt P53341) | µM | 1.38 |

###

# target_under_test: α-Glucosidase from Saccharomyces cerevisiae (Saccharomyces cerevisiae, UniProt P53341)
# assay_info: Fluorescence quenching of α-glucosidase
# Format: binding
# settings: K a (binding constant), T 298 K
pKd: −log10 of the molar value.
endpoint_name: pKd

| molecule | endpoint_name | endpoint_result |
| --- | --- | --- |
| Oc1cc(O)cc(/C=C/c2ccc(O)c(O)c2)c1 [piceatannol, Piceatannol] | pKd | 5.69 |

###

# target_under_test: α-Glucosidase from Saccharomyces cerevisiae (Saccharomyces cerevisiae, UniProt P53341)
endpoint_name: IC50 (µM)

| smi | readout_unit | endpoint_result |
| --- | --- | --- |
| Oc1cc(O)cc(/C=C/c2ccc(O)c(O)c2)c1 | µM | 4.39 |

###

# target_under_test: α-Glucosidase from Saccharomyces cerevisiae (Saccharomyces cerevisiae)
# assay_info: Fluorescence quenching of α-glucosidase
# Assay type: binding
# settings: K a (binding constant), T 310 K
pKd: −log10 of the molar value.
endpoint_name: pKd

| molecule | target_under_test | endpoint_result |
| --- | --- | --- |
| Oc1cc(O)cc(/C=C/c2ccc(O)c(O)c2)c1 [piceatannol, Piceatannol] | α-Glucosidase from Saccharomyces cerevisiae (Saccharomyces cerevisiae) | 6.13 |

###

# target_under_test: α-Glucosidase from Saccharomyces cerevisiae (Saccharomyces cerevisiae, UniProt P53341)

| compound | Ki / µM |
| --- | --- |
| Oc1cc(O)cc(/C=C/c2ccc(O)c(O)c2)c1 [piceatannol, Piceatannol] | 5.38 |
